Values compiled from patent US20240239907A1.

# subject of test: T1, cynomolgus monkey CXCR6 (cynomolgus monkey, UniProt Q9BDS6 1-343)
# T1 construct: also called cyno-CXCR6; cyno monkey CXCR6
# T1 sequence: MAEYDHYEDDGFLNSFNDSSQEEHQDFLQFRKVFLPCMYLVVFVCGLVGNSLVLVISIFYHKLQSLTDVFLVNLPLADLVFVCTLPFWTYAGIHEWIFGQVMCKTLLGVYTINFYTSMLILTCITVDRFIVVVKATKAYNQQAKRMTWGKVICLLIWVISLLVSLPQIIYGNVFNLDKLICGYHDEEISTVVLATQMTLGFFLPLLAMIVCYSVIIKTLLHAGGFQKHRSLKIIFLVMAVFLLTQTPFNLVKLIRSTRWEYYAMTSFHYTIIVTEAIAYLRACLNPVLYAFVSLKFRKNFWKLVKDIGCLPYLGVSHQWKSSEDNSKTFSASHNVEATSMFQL
# assay name: screening on cells overexpressing CXCR6, one single concentration, yes/no
measured endpoint: binding result

CNGs-3B2 (antibody, V domains shown, Mouse-derived; tested at the screening stage) VH: DVQLVESGGGLVQPGGSRTLSCAASGFTFSSFGMHWVRQAPEKGLEWVAYISSGSTTIYYADTVKGRFTISRDNPKNTLFLQVTSLRSEDTAVYYCTRSHWPYWYFDVWGAGTTVTVSS VL: DVQITQSPSYLAASPGETITINCRASKSISKYLAWYQEKPGKTNKLLIYSGSTLQSGNPSRFSGSGSGTDFTLTISRLEPEDCAMYYCQQHNEFPWTFGGGTKLEIK    binds
